Quick list: GI50 per entry.
tested on: MOLT-4; test: NCI tumour cell line growth inhibition, 48 h
Activity calls are given as the source filed them. Rule as the data show it: active = GI50 up to about 1.1 µM and inactive = higher.

# annotated cases, reported GI50 shown
COc1ccc(N[S+]([O-])CCCc2ccccc2)cc1 (stereo not drawn)	> 100 µM (inactive)
c1cncc(C2(c3cc4ccccc4[nH]3)COCO2)c1 (stereo not drawn)	97.9 µM (inactive)

Q. I am curious: what GI50 value has been reported for O=C(CCCc1cccc2[nH]c3c(c12)CN(Cc1ccccc1)CC3)c1ccc(F)cc1 ?
A. 15.3 µM (inactive)

Q. I am curious: what GI50 value has been reported for O=C1N(c2ccccc2)C2(O)C(=O)c3ccccc3C2(O)N1c1ccccc1 (stereo not drawn) ?
A. > 100 µM (inactive)

Q. I am curious: what GI50 value has been reported for N#Cc1cnn2c1n[n+]([O-])c1ccc(Cl)cc12 ?
A. 7.31 µM (inactive)

Q. I am curious: what GI50 value has been reported for COC1=C(OC)C(=O)C(Cc2c(C)nc3sccn23)=C(C)C1=O ?
A. 2.01 µM (inactive)

Q. I am curious: what GI50 value has been reported for C/C(=N\NC(N)=S)c1nc2cccnc2[nH]1 ?
A. 34.8 µM (inactive)

Q. I am curious: what GI50 value has been reported for O=c1[nH]c(=O)c2c3n(cc2[nH]1)CCCCC3 ?
A. > 100 µM (inactive)

Measured values drawn from ChEMBL document CHEMBL1201862 for this set.
